observation type: melting point

O=C(O)c1cn(C2CC2)c2cc(N3CCC(c4ccccn4)C3)c(F)cc2c1=O (stereo unspecified): 216 to 219 °C

Task item: Look at this molecule and give its reported melting point. CCCCc1ccc(/C(Cl)=C/c2ccc(Br)cc2)cc1
Reply: 59 to 61 °C

Task item: // repeat for CCc1cc2c(o1)S(=O)(=O)NC2=O and report
Reply: 133 °C

Task item: Can you check CC(=O)OCC1=C(C(=O)O)N2C(=O)C(NC(=O)Cn3ccnc3S(C)(=O)=O)C2SC1 (stereo unspecified) next?
Reply: 223 °C

Task item: Please answer likewise for Nc1ncc2ncn(OC(CO)CCO)c2n1 (stereo unspecified)
Reply: 178 to 179 °C

Task item: Also CC(=O)N1CCN(CCOC2c3ccccc3C(=O)N2c2ccc3ccc(Cl)nc3n2)CC1 (stereo unspecified) ?
Reply: 172 °C

----------
melting point overview

Known melting point results, listed for orientation:
CC(=NOCCO)c1ccc2ccccc2c1: 94 to 96 °C
CCCCc1oc2ccccc2c1C(=O)NCC(=O)c1ccc2cc(OC)ccc2c1: 129 to 131 °C
Nc1nc(Cl)c(C2=NCCN2)c(Cl)n1: 197 to 198 °C
CNC(=O)c1ccc(N2CCN(Cc3cnc4c(c3)[nH]c(=O)n3cccc43)CC2)c(C)c1: 264 to 266 °C
COc1cccc(F)c1COC1(C(F)(F)F)CN(C)C(=O)Nc2ccc(Cl)cc21 (stereo not given): 172 to 174 °C
CC(C)COc1nc(N)c2ncn(C3C=CCCC3)c2n1 (stereo not given): 132 to 135 °C
NC(=O)C1CCCN1c1nc(-c2ccccc2)nc2[nH]c(CN3CCC(O)(c4ccccc4)CC3)cc12 (stereo not given): 234 to 235 °C
COc1ccccc1SCCC(=O)O: 91 to 91.5 °C

Task item: // query melting point value for entry COc1cc(C(=O)NC(C)(C)C)ccc1S(=O)(=O)Cl
Reply: 145 to 149 °C

Task item: Repeat for the following molecule: CNC(=O)ON=C1SCC(=O)N1C(C)C
Reply: 94 to 96 °C

----------
observation type: melting point

O=C(O)Cc1ccc2c(c1)CC(=O)c1ccccc1C2: 163 to 165 °C
CCCCc1cn(Cc2ccc(-c3ccccc3C(=O)O)cc2)c2c(c1=O)CCCC2: 260 °C
Cc1c(-c2ccccc2)oc2c(S(=O)(=O)Cl)cccc2c1=O: 165 to 170 °C
COC(=O)C[C@H](NC(c1ccccc1)(c1ccccc1)c1ccccc1)C(=O)C(=[N+]=[N-])C(=O)N(C)OC: 130 to 131 °C
CC(=O)OCCc1cc2c(s1)S(=O)(=O)CCc1cc(=O)n(-c3ccc(Cl)cc3)nc1-2: 137 to 140 °C

Task item: Fill in the blank: the reported melting point of Cc1ncc([N+](=O)[O-])n1CCN1C(=O)c2ccccc2C1=O is ____.
Reply: 177 °C

Task item: Same read-out for Cn1cc(-c2cccc(Cl)c2)c(=O)c(-c2cccc(C(F)(F)F)c2)c1 ?
Reply: 133 to 135 °C

Task item: Input CS(=O)(=O)c1ccc(C(CC2CCCC2)C(=O)Nc2nc(CO)cs2)cc1 (stereo not given)
Reply: 124 to 126 °C

Task item: Next compound up: COc1ccc(C2=C(c3ccccc3)CCCc3cc(OC4CCCCO4)ccc32)cc1 (stereo not given)
Reply: 131 to 133 °C

Task item: How about O=c1[nH]ccc2c1c(O)nc1cc(Cl)c(Cl)cc12 ?
Reply: > 350 °C

Task item: Consider next the compound COc1cccc(-c2n[nH]c(-c3ccccc3C)n2)c1 in the same way.
Reply: 100 to 102 °C

Task item: Can you handle CCOc1nn(-c2ccc(C(F)(F)F)cn2)cc1CCCOc1cc(CCC(=O)O)n(C2CCCCC2)n1 next?
Reply: 89 to 90 °C

Task item: Could you do the same for CC(C)(C)OC(=O)N[C@H]1CNC1=O , please?
Reply: 173 to 175 °C

Task item: And the next one, CCNC(=O)c1cc(N=C=S)ccc1[Si](C)(C)C ?
Reply: 106 to 108 °C

Task item: Next record, please: CC(=O)OCc1ccc(N)cc1
Reply: 83 to 84 °C

Task item: Also Cn1c2cc(Cl)ccc2c2c(CC#N)nn(-c3ccccc3)c(=O)c21 ?
Reply: 305 to 315 °C

Task item: Param item: Cn1cc(-c2cc(-c3c[nH]nc3-c3ccccn3)ccc2F)cn1
Reply: 134 to 136 °C

Task item: Proceed to CC(C)CC(=O)CNC(=O)c1ccc(Cl)cc1
Reply: 127 to 129 °C

Task item: Cool, now O=C1C=C(NC(=O)C(=O)c2cn(Cc3ccc(Cl)cc3)c3ccc(Cl)cc23)CO1
Reply: 251 to 253 °C

Task item: Continue with Cn1ncnc1COc1nc2c(cc1CC(C)(C)C)nnn2-c1ccccc1F
Reply: 130 to 133 °C
